# procedureDetails: gradient 5% acetonitrile 3 min, to 50% in 2 min, to 85% in 15 min, held 3 min, 100 µL/min
# conditionNotes: column: Zorbax Extend-C18 2.1 x 50 mm; eluents: water / acetonitrile, 0.1% formic acid
testReadout: RP-LC retention time (s)

- compound: "NC(=O)c1ccsc1NC(=O)c1c[nH]c2ccccc12"
  RP-LC retention time, s: 673

I: COc1ccc(N2CCN(c3cc(SCC(=O)Nc4cc(Cl)ccc4OC)ncn3)CC2)cc1
II: CN(Cc1nc(-c2ccc(N3CCCCC3)nc2)no1)C1CCCCC1
Sorting ascending by RP-LC retention time, which comes first: I or II ? Identify your pick by its label.
II
(II: 666 s, I: 1200 s)

I: COc1ccc(-n2c(=O)n(C)c(=O)c3cc(C(=O)Nc4ccc(F)c(F)c4)cnc32)cc1
II: CN1CCN(CCCNC(=O)C2CCc3sc(C(=O)N4CCCCCC4)cc3C2)CC1 (centres undefined)
Kindly identify which of I and II has the larger recorded RP-LC retention time value. # answer = label of selected item
I
(I: 948 s, II: 581 s)

I: NS(=O)(=O)c1ccc(CCNS(=O)(=O)c2ccc(-c3cc(C(F)(F)F)on3)o2)cc1
II: COCCN1CCC(N2CCCN(C(=O)c3ccc(F)c(Cl)c3)CC2)C1=O (centres undefined)
III: CCCn1c(=O)c(C)nc2cc(-c3noc(-c4ccc(OCC)cc4)n3)ccc21
Ascending by RP-LC retention time, please: list the compounds accordingly. Answer format: the labels, ordered as requested.
II, I, III
(II: 573 s, I: 874 s, III: 1290 s)
